assay: self-splicing fitness, log relative to wild type (ln ratio); higher = more splicing; Tetrahymena group I intron in knt gene, E. coli kanamycin selection, DiMSum; sequences stand for … in CUCUCU…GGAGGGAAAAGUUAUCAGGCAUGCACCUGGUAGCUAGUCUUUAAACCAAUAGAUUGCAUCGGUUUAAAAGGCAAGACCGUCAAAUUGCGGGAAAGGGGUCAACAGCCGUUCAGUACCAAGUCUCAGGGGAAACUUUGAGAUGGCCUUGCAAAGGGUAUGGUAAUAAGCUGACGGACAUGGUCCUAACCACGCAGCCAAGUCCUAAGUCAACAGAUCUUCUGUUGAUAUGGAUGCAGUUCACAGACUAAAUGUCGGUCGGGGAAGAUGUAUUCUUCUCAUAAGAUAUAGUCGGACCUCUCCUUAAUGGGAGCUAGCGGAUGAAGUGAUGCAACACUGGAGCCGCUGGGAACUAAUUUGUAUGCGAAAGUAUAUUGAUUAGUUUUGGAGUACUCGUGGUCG; conditions: 30 °C;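 further: selection with 25 µg/mL kanamycin versus none on LB agar overnight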
QUANTITY_KIND: self-splicing fitness (ln)

# SEQ_STRING, MEASURED
measured = [
    ("CAACAGCAAUAUUACGAGAC", -2.57),
    ("GUAAAGCAAUAUUACGCGAA", -0.868),
    ("AUAGAGCAAUAUUACGAUUA", -2.45),
    ("CGGUAGCAAUAUUACGUAGU", -2.59),
    ("CACAAGCAAUAUUACGGGAG", -1.55),
    ("GAACAGCAAUAUUACGUUGA", -1.47),
    ("UGAUAGCAAUAUUACGGGGC", -3.5),
    ("GAAUAGCAAUAUUACGAGUG", -2.01),
    ("ACGGAGCAAUAUUACGAAAU", -2.71),
    ("CCUAAGCAAUAUUACGCCUG", -3.62),
    ("GUUAAGCAAUAUUACGAUCC", -1.62),
    ("CGACAGCAAUAUUACGGUCC", -1.13),
    ("CGCGAGCAAUAUUACGGGAC", -3.07),
    ("GUCAAGCAAUAUUACGGCGA", -2.1),
    ("CUUCAGCAAUAUUACGAAUU", -2.66),
    ("GUCGAGCAAUAUUACGUCGA", -3.97),
    ("CUGGAGCAAUAUUACGGUCA", -2.54),
    ("UAGAAGCAAUAUUACGUUUC", -2.28),
    ("CCUCAGCAAUAUUACGAUGU", -3.41),
    ("GCAGAGCAAUAUUACGCCAG", -2.36),
    ("CUCCAGCAAUAUUACGGCCA", -2.94),
    ("AAGUAGCAAUAUUACGAAUC", -2.13),
    ("GUGAAGCAAUAUUACGUGUU", -2.74),
    ("UUUCAGCAAUAUUACGCUUC", -0.771),
    ("UCCAAGCAAUAUUACGUCAC", -3.72),
    ("GCGAAGCAAUAUUACGAACU", -0.877),
    ("GCAAAGCAAUAUUACGGCAA", -0.673),
    ("GCUCAGCAAUAUUACGAUAG", -1.95),
    ("CACUAGCAAUAUUACGAGAG", -3.21),
    ("AUGAAGCAAUAUUACGCACC", -0.272),
    ("AAUAAGCAAUAUUACGAGUC", -3.1),
    ("UCAUAGCAAUAUUACGUGAU", -3.82),
    ("GGUGAGCAAUAUUACGCGGA", -2.35),
    ("CAUGAGCAAUAUUACGUAUU", -3.86),
]
